Measured Ratios of EC50 values: MC3/4, listed per entry for reference.
Molecular target: melanocortin-3 receptor (human, UniProt P41968 1-323)
Sequence (P41968 whole entry): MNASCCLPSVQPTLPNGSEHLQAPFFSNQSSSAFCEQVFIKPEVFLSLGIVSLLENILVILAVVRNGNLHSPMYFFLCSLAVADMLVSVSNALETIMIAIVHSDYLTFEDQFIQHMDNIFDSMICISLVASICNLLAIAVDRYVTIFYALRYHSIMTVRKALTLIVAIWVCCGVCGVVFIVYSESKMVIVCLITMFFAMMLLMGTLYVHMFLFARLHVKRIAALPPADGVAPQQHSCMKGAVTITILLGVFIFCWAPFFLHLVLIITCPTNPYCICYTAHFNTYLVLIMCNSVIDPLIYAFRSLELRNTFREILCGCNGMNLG
Test: cell-based or functional assay
Bridge positions count the residues as written; N and C are the ends. Square brackets hold non-standard residues; d marks the D form. Pen = CC(C)(S)[C@H](N)C(=O)O; hCys = N[C@@H](CCS)C(=O)O
QUANTITY: Ratios of EC50 values: MC3/4

>  <BINDER>
Ac-RC[dA]P[dF]RWC-NH2 (disulfide 2-8; SMILES CC(=O)N[C@@H](CCCNC(=N)N)C(=O)N[C@H]1CSSC[C@@H](C(N)=O)NC(=O)[C@H](Cc2c[nH]c3ccccc23)NC(=O)[C@H](CCCNC(=N)N)NC(=O)[C@@H](Cc2ccccc2)NC(=O)[C@@H]2CCCN2C(=O)[C@@H](C)NC1=O) [Compound 13: Ac-Arg-cyclo[Cys-D-Ala-Pro-D-Phe-Arg-Trp-Cys]-NH2]

>  <INEQUALITY SIGN>
>

>  <MEASURED>
200

$$$$
>  <BINDER>
Ac-R[hCys][dA][dF]RW[Pen]-NH2 (disulfide 2-7; SMILES CC(=O)N[C@@H](CCCNC(=N)N)C(=O)N[C@H]1CCSSC(C)(C)[C@@H](C(N)=O)NC(=O)[C@H](Cc2c[nH]c3ccccc23)NC(=O)[C@H](CCCNC(=N)N)NC(=O)[C@@H](Cc2ccccc2)NC(=O)[C@@H](C)NC1=O) [Compound 17: Ac-Arg-cyclo[hCys-D-Ala-D-Phe-Arg-Trp-Pen]-NH2]

>  <INEQUALITY SIGN>
=

>  <MEASURED>
17

$$$$

FYI, the data here is from patent US20160022764A1.
